B1: FERM and PDZ domain-containing protein 4, residues 75 to 154; numbered along this chain, Q14CM0 (parent)
chain: APRKVEMRRDPVLGFGFVAGSEKPVVVRSVTPGGPSEGKLIPGDQIVMINDEPVSAAPRERVIDLVRSCKESILLTVIQP

- Variants of: B1
- test.details: abundance fitness (aPCA) (normalised: wild type 0, dead -1); higher = more abundant; growth selection in yeast, the domain comes from the species named
- test.conditions: Homo sapiens
Catalogue of variants with associated abundance fitness
Respond with the number and no other words.

Recorded results for 10 variants are shown here.
mutant.designation	endpoint.result
G34T	-0.066
A19V	0.003
G43Q	-0.227
K23I	-0.085
R9W	-0.089
I73E	-0.463
K39P	-0.679
M7L	0.04
D64Y	-0.252
G38Q	-0.099

Moving on to another variant below.
What value of abundance fitness has been recorded for this entry: `R59W`
-0.025
